# Target under test: T1, recombinant human IL6R-his (human, UniProt P08887 20-365)
# T1 construct: In house made; the entry includes the C-terminal His tag; also called human IL6R-his protein
# T1 sequence: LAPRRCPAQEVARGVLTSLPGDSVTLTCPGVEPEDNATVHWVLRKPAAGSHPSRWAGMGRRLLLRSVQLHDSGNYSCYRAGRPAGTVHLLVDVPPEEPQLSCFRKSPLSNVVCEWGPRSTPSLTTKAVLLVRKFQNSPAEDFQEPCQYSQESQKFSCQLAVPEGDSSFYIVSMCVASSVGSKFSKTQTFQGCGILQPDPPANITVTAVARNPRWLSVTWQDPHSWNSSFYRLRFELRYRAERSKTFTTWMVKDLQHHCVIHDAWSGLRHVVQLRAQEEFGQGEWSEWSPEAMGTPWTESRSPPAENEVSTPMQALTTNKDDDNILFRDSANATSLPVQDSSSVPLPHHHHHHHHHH
# Method notes: SPR Biacore; antibody from diluted cell supernatant captured by anti-human IgG on CM5, human IL6R in flow
# Method: Un-reacted moieties on the biosensor surface were blocked with ethanolamine. […] Then, serially diluted recombinant human IL6R-his (in house made, amino acid sequence set forth in SEQ ID NO: 44) or macaca IL6R-his protein (in house made, amino acid sequence set forth in SEQ ID NO: 45), starting at 100 nM with a 2-fold serial dilution in HBS-EP⁺ buffer (provided by Biacore), was flowed onto the chip at a flow rate of 30 μL/min. […]
Measurement label: pKd
Give bare numbers, as −log10 of the molar value.

>  <Binder>
humanized antibody hu1H7-V12 (antibody, human IgG1, kappa, V domains shown, Human IgG1 / kappa) VH: QVQLVQSGAEVKKPGASVKVSCKASGYTFTNYWMHWVRQAPGQGLEWIGEINPTNGRTNYNENFKSKVTLTVDTSTSTVYMELSSLRSEDTAVYYCARLNTHYVFDSWGQGTLVTVSS VL: EIVLTQSPGTLSLSPGERATLSCSVSSSISSNYLHWYQQKPGLSPRLLISRTSTLASGIPARFSGSGSGTEFTLTISRLQSEDFAVYYCQQGSGIPFTFGQGTKLEIKR

>  <pKd>
9.13

$$$$

I am curious: what pKd value has been reported for humanized antibody hu1H7-V5 (antibody, human IgG1, kappa, V domains shown, Human IgG1 / kappa) VH: QVQLVQSGAEVKKPGASVKVSCKASGYTFTNYWMHWVRQAPGQGLEWIGEINPTNGRTNYNENFKSRVTLTVDTSTSTVYMELSSLRSEDTAVYYCARLNTHYVFDSWGQGTLVTVSS VL: EIVLTQSPGTLSLSPGERATLSCSVSSSISSNYLHWYQQKPGLSPRLLISRTSTLASGIPARFSGSGSGTEYTLTISRMQSEDFAVYYCQQGSGIPFTFGQGTKLEIKR ?
9.28
